- Assay Summary: Pharmacokinetic profile after oral administration in rats
- Type: in vivo, Sprague-Dawley male rats
- Measurement Conditions: male, Sprague-Dawley, rat, 10 mg/kg oral gavage, plasma
Measurement Type: AUC (ng·h/mL)

{"Compound": "CCC=CCC=CCC=CCC=CCC=CCC=CCCC(=O)N1CC(O)CC1C(=O)O (stereo not shown)", "Unit Of Measurement": "ng·h/mL", "Measured": 6690}

###

- Assay Summary: Pharmacokinetic profile after oral administration in rats
- Format: in vivo, Sprague-Dawley male rats
- Measurement Conditions: male, Sprague-Dawley, rat, 10 mg/kg oral gavage, plasma, read-out: T½ (converted)
Measurement Type: half-life (h)

{"Compound": "CCC=CCC=CCC=CCC=CCC=CCC=CCCC(=O)N1CC(O)CC1C(=O)O (stereo not shown)", "Measurement Type": "half-life", "Measured": 4.9}

###

- Assay Summary: Pharmacokinetic profile after oral administration in rats
- Assay type: in vivo, Sprague-Dawley male rats
- Measurement Conditions: male, Sprague-Dawley, rat, 10 mg/kg oral gavage, plasma

{"Compound": "CCC=CCC=CCC=CCC=CCC=CCC=CCCC(=O)N1CC(O)CC1C(=O)O (stereo not shown)", "Cmax (ng/mL)": 1040}
